Hello, the source for this data is ChEMBL document CHEMBL3244264, in case you need it.

- Test system: Saccharomyces cerevisiae
- assay_procedure: Antiyeast activity against Saccharomyces cerevisiae 9763 assessed as total inhibition of fungal growth after 24 to 48 hrs by microdilution-colorimetric method
- Assay type: functional
Starred links: 1 amine or outer side, 2 acyl side, 3 side chain; linkers in the order of their positions; H or OH if unused. Residues, ends and D or L forms follow the SMILES beside them. *: point of attachment. Suc = O=C(CCC(=O)[*:2])[*:1]; OBn = c1ccc(CO*)cc1
Reported log10 MIC values for the following compounds.
Hello, just confirming the data are log10 of MIC with units of µg/mL.

The measured log10 MIC associated with C[C@H](NC(=O)OC(C)(C)C)C(=O)NCC(=O)Nc1nc(=O)[nH]cc1F reads -0.21

The measured log10 MIC associated with CC(C)(C)OC(=O)N[C@@H](CCC(=O)Nc1nc(=O)[nH]cc1F)C(=O)OCc1ccccc1 reads 0.10

The measured log10 MIC associated with CC(C)C[C@H](NC(=O)[C@H](C)NC(=O)CCC(=O)Nc1nc(=O)[nH]cc1F)C(=O)OCc1ccccc1 reads -0.51

The measured log10 MIC associated with CC(C)C[C@H](NC(=O)CCC(=O)O)C(=O)N[C@@H](CC(C)C)C(=O)OCc1ccccc1 reads 1.90

The measured log10 MIC associated with CC(C)C[C@H](NC(=O)CCC(=O)Nc1nc(=O)[nH]cc1F)C(=O)N[C@@H](CC(C)C)C(=O)OCc1ccccc1 reads -0.51

The measured log10 MIC associated with O=C(O)CCC(=O)O [SUCCINIC ACID] reads 2.81

The measured log10 MIC associated with CC(=O)Nc1nc(O)ncc1F reads -0.51

The measured log10 MIC associated with CC(C)C[C@H](NC(=O)[C@H](CC(C)C)NC(=O)CCC(=O)Nc1nc(=O)[nH]cc1F)C(=O)O reads -0.51

More entries:
The measured log10 MIC associated with CC(C)C[C@H](NC(=O)[C@H](C)NC(=O)CCC(=O)O)C(=O)OCc1ccccc1 (Suc-Ala-Leu-OBn) reads 2.20

====

- Tested on: Pichia kudriavzevii
- assay_procedure: Antiyeast activity against Candida krusei 1-T assessed as total inhibition of fungal growth after 24 to 48 hrs by microdilution-colorimetric method
- Assay type: functional
Starred links: 1 amine or outer side, 2 acyl side, 3 side chain; linkers in the order of their positions; H or OH if unused. Residues, ends and D or L forms follow the SMILES beside them. *: point of attachment. Suc = O=C(CCC(=O)[*:2])[*:1]; OBn = c1ccc(CO*)cc1
property_measured: MIC
Quote the value and follow it with the unit of measurement.

The measured MIC associated with CC(C)C[C@H](NC(=O)CCC(=O)O)C(=O)N[C@@H](CC(C)C)C(=O)OCc1ccccc1 reads 320 µg/mL

The measured MIC associated with CC(C)C[C@H](NC(=O)[C@H](C)NC(=O)CCC(=O)O)C(=O)OCc1ccccc1 (Suc-Ala-Leu-OBn) reads 320 µg/mL

The measured MIC associated with CC(C)C[C@H](NC(=O)[C@H](C)NC(=O)CCC(=O)Nc1nc(=O)[nH]cc1F)C(=O)OCc1ccccc1 reads 20 µg/mL

The measured MIC associated with CC(C)C[C@H](NC(=O)[C@H](C)NC(=O)CCC(=O)Nc1nc(=O)[nH]cc1F)C(=O)O reads 10 µg/mL

The measured MIC associated with CC(=O)Nc1nc(O)ncc1F reads 40 µg/mL

The measured MIC associated with Nc1nc(=O)[nH]cc1F reads 5 µg/mL

====

- assay_procedure: Chemical stability of the compound in solutions of organism-free yeast nitrogen base assessed as half life at 50 uM at 37 degC by UV absorbance analysis
- Format: physicochemical
- stated_conditions: organism-free yeast nitrogen base solution
property_measured: half-life at 50 µM (h)
Just the number please, in h, no unit attached.

The measured half-life at 50 µM associated with CC(=O)Nc1nc(O)ncc1F reads 17.6

The measured half-life at 50 µM associated with CC(C)C[C@H](NC(=O)[C@H](CC(C)C)NC(=O)CCC(=O)Nc1nc(=O)[nH]cc1F)C(=O)O reads 2.9

The measured half-life at 50 µM associated with CC(C)(C)OC(=O)N[C@@H](CCC(=O)Nc1nc(=O)[nH]cc1F)C(=O)OCc1ccccc1 reads 10

The measured half-life at 50 µM associated with CC(C)C[C@H](NC(=O)[C@H](C)NC(=O)CCC(=O)Nc1nc(=O)[nH]cc1F)C(=O)OCc1ccccc1 reads 1.1

The measured half-life at 50 µM associated with O=C(CCC(=O)Nc1nc(=O)[nH]cc1F)NCC(=O)NCC(=O)OCc1ccccc1 reads 0.3

The measured half-life at 50 µM associated with C[C@H](NC(=O)OC(C)(C)C)C(=O)NCC(=O)Nc1nc(=O)[nH]cc1F reads 2.3

The measured half-life at 50 µM associated with CC(C)C[C@H](NC(=O)[C@H](C)NC(=O)CCC(=O)Nc1nc(=O)[nH]cc1F)C(=O)O reads 1.7

====

Reported MIC values for the following compounds.
- Test system: Candida albicans
- assay_procedure: Antiyeast activity against Candida albicans WD 18-4 assessed as total inhibition of fungal growth after 24 to 48 hrs by microdilution-colorimetric method
- Format: functional
Just the number please, in µg/mL, no unit attached.

Some solved entries appear below for comparison.
The measured MIC associated with CC(C)C[C@H](NC(=O)CCC(=O)Nc1nc(=O)[nH]cc1F)C(=O)N[C@@H](CC(C)C)C(=O)OCc1ccccc1 reads 2.5

The measured MIC associated with CC(C)C[C@H](NC(=O)[C@H](C)NC(=O)CCC(=O)Nc1nc(=O)[nH]cc1F)C(=O)O reads 5

More entries:
The measured MIC associated with CC(C)C[C@H](NC(=O)[C@H](C)NC(=O)CCC(=O)Nc1nc(=O)[nH]cc1F)C(=O)OCc1ccccc1 reads 5

====

- Tested on: Candida albicans
- assay_procedure: Antiyeast activity against Candida albicans WD 18-4 assessed as total inhibition of fungal growth after 24 to 48 hrs by microdilution-colorimetric method
- Type: functional
Starred links: 1 amine or outer side, 2 acyl side, 3 side chain; linkers in the order of their positions; H or OH if unused. Residues, ends and D or L forms follow the SMILES beside them. *: point of attachment. Suc = O=C(CCC(=O)[*:2])[*:1]; OBn = c1ccc(CO*)cc1
property_measured: MIC

Some solved entries appear below for comparison.
The measured MIC associated with CC(C)C[C@H](NC(=O)CCC(=O)O)C(=O)N[C@@H](CC(C)C)C(=O)OCc1ccccc1 reads > 20 µg/mL

The measured MIC associated with O=C(O)CCC(=O)NCC(=O)NCC(=O)OCc1ccccc1 (Suc-Gly-Gly-OBn) reads > 20 µg/mL

Proceed to the following item.
The measured MIC associated with CC(C)C[C@H](NC(=O)[C@H](C)NC(=O)CCC(=O)O)C(=O)OCc1ccccc1 (Suc-Ala-Leu-OBn) reads > 20 µg/mL

====

Reported MIC values for the following compounds.
- Tested on: Saccharomyces cerevisiae
- assay_procedure: Antiyeast activity against Saccharomyces cerevisiae 9763 assessed as total inhibition of fungal growth after 24 to 48 hrs by microdilution-colorimetric method
- Type: functional
Starred links: 1 amine or outer side, 2 acyl side, 3 side chain; linkers in the order of their positions; H or OH if unused. Residues, ends and D or L forms follow the SMILES beside them. *: point of attachment. Suc = O=C(CCC(=O)[*:2])[*:1]; OBn = c1ccc(CO*)cc1
Just the number please, in µg/mL, no unit attached.

The measured MIC associated with O=C(CCC(=O)Nc1nc(=O)[nH]cc1F)NCC(=O)NCC(=O)OCc1ccccc1 reads 0.62

The measured MIC associated with O=C(O)CCC(=O)NCC(=O)NCC(=O)OCc1ccccc1 (Suc-Gly-Gly-OBn) reads 320

The measured MIC associated with Nc1nc(=O)[nH]cc1F [FLUCYTOSINE] reads 0.31

The measured MIC associated with CC(C)C[C@H](NC(=O)[C@H](C)NC(=O)CCC(=O)Nc1nc(=O)[nH]cc1F)C(=O)O reads 0.31

The measured MIC associated with O=c1[nH]cc(F)c(=O)[nH]1 [FLUOROURACIL] reads 1.25

Proceed to the following item.
The measured MIC associated with O=C(CNC(=O)OCc1ccccc1)Nc1nc(=O)[nH]cc1F reads 0.31
